ASSAY_ENDPOINT: melting point

Example cases with answers are listed next.
COMPOUND: O=S(=O)(CCc1ccc(-c2ccccc2)cc1)N1CC(CN2CCCC2)Cc2ccccc21 (stereo not drawn)
MEASURED: 107 to 110 °C
--
COMPOUND: NC(=O)N(O)C/C=C/c1cccc(C2=NOC(c3ccc(F)cc3)C2)c1 (stereo not drawn)
MEASURED: 159 to 160 °C

*Q* What value of measured melting point is listed for COC(OC)c1ccc2c(c1)C(C)(C)C(=O)CC2(C)C ?
*A* 91 to 92 °C

----------
Collected melting point values appear next to each entry.

Below: 2 compounds and their reported melting point.
MOLECULAR_STRING: COc1cccc(C(=O)O)c1C
ASSAY_ENDPOINT: melting point
MEASURED: 145 to 147 °C

MOLECULAR_STRING: CC(C)NC(=N)NC1=NC(=O)C(=O)N1c1ccc(Cl)c(Cl)c1
ASSAY_ENDPOINT: melting point
MEASURED: 244 °C

Kindly review the next compound as well.
*Q* Fill in: melting point of CCOP(=O)(CNc1cc(Oc2ccc(C(F)(F)F)cc2Cl)ccc1[N+](=O)[O-])OCC is ___
*A* 78 to 79 °C

----------
ASSAY_ENDPOINT: melting point

COMPOUND: O=C(O)c1cncn1C(c1ccccc1)c1ccccc1
melting point: 216 °C

COMPOUND: CCCCn1nc(C)c(C(=O)OC)c1Cc1ccc(-c2ccccc2S(N)(=O)=O)cc1
melting point: 49 to 54 °C

COMPOUND: CC1Sc2c(C(=O)O)c(=O)c3cc(F)c(N4CCNCC4)cc3n21 (stereo not drawn)
melting point: 225 to 227 °C

*Q* Report melting point for CO/N=C(/CNC(=O)c1cnc(O[C@@H](C)C(F)(F)F)c(-c2ccc(Cl)cc2)n1)C1CC1 please.
*A* 149 to 152 °C

*Q* Reported melting point for NC(CCCSc1nccc(NC(N)=NCC(F)(F)F)n1)=NO : what is it?
*A* 137 to 139 °C

*Q* Please look up its melting point: CCOC(=O)Cc1csc(-c2ncccc2O)n1
*A* 85.5 to 86.5 °C

*Q* GET /values?readout=melting point&item= COCCOC(=O)c1cc(-c2c(C(F)(F)F)nc(OC)[nH]c2=O)c(F)cc1Cl
*A* 63 to 65 °C

*Q* Which measured melting point value corresponds to CC(=O)N(C)C1CCC(=O)c2ccccc21 (stereo not drawn) ?
*A* 101 to 103 °C

----------
ASSAY_ENDPOINT: melting point

Use the examples below as a reference point.
MOLECULE: CN(C)c1ccc(C(N)P(O)O)cc1 (configuration not stated)
ASSAY_ENDPOINT: melting point
MEASURED: 223 to 224 °C
--
MOLECULE: COC(=O)C(OC)C(=O)Nc1cc(Cl)cc(Cl)c1 (configuration not stated)
ASSAY_ENDPOINT: melting point
MEASURED: 116 to 118 °C

*Q* Sample COC(=O)CNc1ccc(CCNC(=O)c2ccc(C#N)cc2)cc1 — what was its melting point?
*A* 161 to 162 °C

*Q* State the recorded melting point for this entry: CN(C)C(=O)C1=NN(c2ccccc2)C(C(N)=O)=NN1c1ccccc1
*A* 243 to 244 °C

*Q* Need melting point, item Cc1ccccc1CN1CCN(C)CC1C1=NCCN1 (configuration not stated)
*A* 156 to 158 °C

*Q* Field request: melting point | item: CN1CCN(c2ccc(S(=O)(=O)Oc3cccc([N+](=O)[O-])c3)cc2)C1=O
*A* 167 to 169 °C

*Q* Find the recorded melting point belonging to NC(=O)c1ccc(CCCOCCCCCCBr)cc1 and report it.
*A* 79 to 82 °C

*Q* Data request, read-out melting point, for O=Cc1cc([N+](=O)[O-])cc(Cl)c1S
*A* 84 to 89 °C

*Q* Would you mind telling me what melting point value was observed for NC(=O)c1cc(OCCNCC(O)COc2ccc(-c3nc(C(F)(F)F)c[nH]3)cc2)ccc1O (configuration not stated) ?
*A* 155 to 158 °C

*Q* What value of measured melting point is listed for COC(=O)[C@@H]1CN(C(=O)OC(C)(C)C)CC[C@@H]1C(=O)O (relative stereo) ?
*A* 129 to 136 °C

*Q* Give its melting point value. Item: CCOc1ccc(C(F)(F)F)cc1-c1cccn2nc(Nc3ccc4c(c3)CCN(CCS(C)(=O)=O)CC4)nc12
*A* 105 to 109 °C

*Q* Quick one: melting point of CCOCc1nc2c(N)nc(C)c(C)c2n1CCNC(=O)N1CCOCC1 ?
*A* 179 to 181 °C

*Q* Query (molecule): O=c1nc(Nc2ccc(C(F)(F)F)cc2)sc2ncccc12 ; field requested: melting point
*A* 280 to 283 °C

*Q* Entry under review: COCCN(CCOC)c1nc2cc(-c3ccc(Cl)cc3)nnc2c2ccccc12 . Reported melting point?
*A* 123 to 125 °C

*Q* Quick one: melting point for N#Cc1cccc(-n2c(=O)c(N3CCCCCC3)cc3cccnc32)c1 ?
*A* 215 to 217 °C

*Q* Field request: melting point | item: COc1cc(Nc2c(C#N)cnc3cc(-c4csc(CN5CCOCC5)c4)ccc23)c(Cl)cc1C
*A* 168 to 170 °C

*Q* What value of melting point has been reported for the following molecule? CC1(CCl)CN(C2CCN(c3cccc(OC(F)(F)F)c3)C2=O)C1=O (configuration not stated)
*A* 104 to 106 °C

Origin of the recorded values: a melting point compilation (Tetko et al.; mined from patent text by program, amines drawn as free bases though some values may be those of a salt)
